assay.info: Cytotoxic activity against human OCL3 cells after 48 hrs by fluorescent resazurin dye assay
Assay type: functional, cell-based
condition.notes: OCL3, 48 h
pEC50: −log10 of the molar value.
measure: pEC50

> print(dat)
                                 mol.smiles  observed.measurement
1  CCN(CC)C(=O)c1ccc2c(NCCc3c[nH]c4ccccc34)c3ccccc3nc2c1                  4.74
2  CN1CCN(C(=O)c2ccc3c(NC4CCN(Cc5ccccc5)CC4)c4ccccc4nc3c2)CC1                  4.69
3  CN1CCN(C(=O)c2cccc3c(NCCc4c[nH]c5ccccc45)c4ccccc4nc23)CC1                  4.40
4  CN1CCN(C(=O)c2ccc3c(NCCc4c[nH]c5ccccc45)c4ccccc4nc3c2)CC1                  4.82
